pIC50 reference
- target.or.system: Prostaglandin G/H synthase 1 (Ovis aries, UniProt P05979)
- Sequence (P05979 whole entry): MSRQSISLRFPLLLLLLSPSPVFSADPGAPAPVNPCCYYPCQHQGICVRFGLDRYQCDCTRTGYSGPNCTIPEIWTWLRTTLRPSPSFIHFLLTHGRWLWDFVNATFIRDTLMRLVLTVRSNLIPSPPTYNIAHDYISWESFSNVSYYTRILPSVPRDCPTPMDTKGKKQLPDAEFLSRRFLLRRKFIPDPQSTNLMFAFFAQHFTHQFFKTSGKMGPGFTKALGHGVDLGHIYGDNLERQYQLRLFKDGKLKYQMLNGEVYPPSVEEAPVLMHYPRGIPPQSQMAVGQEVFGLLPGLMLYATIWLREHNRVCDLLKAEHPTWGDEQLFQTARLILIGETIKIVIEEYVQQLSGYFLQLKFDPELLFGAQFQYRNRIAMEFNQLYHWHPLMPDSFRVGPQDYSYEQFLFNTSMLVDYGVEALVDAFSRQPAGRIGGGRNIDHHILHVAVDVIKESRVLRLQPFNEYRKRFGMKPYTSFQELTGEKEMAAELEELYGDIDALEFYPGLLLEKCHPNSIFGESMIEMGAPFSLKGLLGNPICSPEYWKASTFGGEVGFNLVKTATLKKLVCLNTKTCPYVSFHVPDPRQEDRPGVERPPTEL
- test.name: Inhibition of ovine COX1 using arachidonic acid as substrate assessed as production of PGF2alpha preincubated for 10 mins followed by substrate addition measured after 2 mins by EIA in presence of stannous chloride
Lab note: report pIC50 as minus log10 of the concentration in molar units, number only.

| smiles.str | target.or.system | pIC50 |
| --- | --- | --- |
| NC(=S)c1ccc(-n2nc(C(F)(F)F)cc2-c2ccc(Br)cc2)cc1 | Prostaglandin G/H synthase 1 (Ovis aries, UniProt P05979) | 5.63 |
| N#Cc1ccc(-n2nc(C(F)(F)F)cc2-c2ccccc2)cc1 | Prostaglandin G/H synthase 1 (Ovis aries, UniProt P05979) | 5.95 |
| NC(=S)c1ccc(-n2nc(C(F)(F)F)cc2-c2ccc(Cl)cc2)cc1 | Prostaglandin G/H synthase 1 (Ovis aries, UniProt P05979) | 5.95 |

Report pIC50 under test system Prostaglandin G/H synthase 1 (Ovis aries, UniProt P05979) for `NC(=S)c1ccc(-n2nc(C(F)(F)F)cc2-c2ccccc2)cc1` .
5.85

###

- target.or.system: Prostaglandin G/H synthase 1 (Ovis aries)
- test.name: Inhibition of ovine COX1 using arachidonic acid as substrate assessed as production of PGF2alpha at 30 uM preincubated for 10 mins followed by substrate addition measured after 2 mins by EIA in presence of stannous chloride relative to control
Calls of active or inactive are those of the source. The calls are words filed in the database; no cut-off is given here.
outcome.measure: inhibition

Answered examples (4):
| smiles.str | inhibition |
| --- | --- |
| NC(=S)c1ccc(-n2nc(C(F)(F)F)cc2-c2ccco2)cc1 | 20.1% |
| N#Cc1ccc(-n2nc(C(F)(F)F)cc2-c2ccco2)cc1 | inactive |
| NC(=S)c1ccc(-n2nc(C(F)(F)F)cc2-c2ccc(Cl)cc2)cc1 | 86.9% |
| N#Cc1ccc(-n2nc(C(F)(F)F)cc2-c2ccccc2)cc1 | 97% |

Output inhibition of `Cc1ccc(-c2cc(C(F)(F)F)nn2-c2ccc(C#N)cc2)cc1`
inactive

Please give the documented inhibition of `NC(=S)c1ccc(-n2nc(C(F)(F)F)cc2-c2ccc(Br)cc2)cc1`
86.1%

###

- target.or.system: Prostaglandin G/H synthase 1 (Ovis aries)
- Sequence (whole entry): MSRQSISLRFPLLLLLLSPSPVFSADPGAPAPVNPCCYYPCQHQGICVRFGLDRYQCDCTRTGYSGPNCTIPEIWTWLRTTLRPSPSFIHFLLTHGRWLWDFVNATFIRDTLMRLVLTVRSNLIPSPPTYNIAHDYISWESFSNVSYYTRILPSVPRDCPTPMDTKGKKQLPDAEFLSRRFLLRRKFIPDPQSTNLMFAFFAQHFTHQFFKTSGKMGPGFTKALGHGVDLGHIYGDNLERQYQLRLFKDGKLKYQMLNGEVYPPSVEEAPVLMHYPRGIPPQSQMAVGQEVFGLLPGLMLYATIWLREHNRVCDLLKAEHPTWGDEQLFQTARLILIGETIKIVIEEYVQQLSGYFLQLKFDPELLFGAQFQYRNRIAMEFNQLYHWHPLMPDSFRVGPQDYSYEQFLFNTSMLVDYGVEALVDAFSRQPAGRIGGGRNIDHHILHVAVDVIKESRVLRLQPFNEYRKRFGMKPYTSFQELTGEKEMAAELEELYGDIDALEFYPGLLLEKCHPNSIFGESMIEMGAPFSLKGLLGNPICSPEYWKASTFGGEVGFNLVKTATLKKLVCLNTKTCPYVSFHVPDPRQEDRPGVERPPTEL
- test.name: Inhibition of ovine COX1 using arachidonic acid as substrate assessed as production of PGF2alpha at 30 uM preincubated for 10 mins followed by substrate addition measured after 2 mins by EIA in presence of stannous chloride relative to control
The source made the active and inactive calls. The calls are words filed in the database; no cut-off is given here.
outcome.measure: inhibition

| smiles.str | value.observed |
| --- | --- |
| NC(=S)c1ccc(-n2nc(C(F)(F)F)cc2-c2cccs2)cc1 | 39.8% |
| Cc1ccc(-c2cc(C(F)(F)F)nn2-c2ccc(C(N)=S)cc2)cc1 | 44.3% |
| N#Cc1ccc(-n2nc(C(F)(F)F)cc2-c2ccc(Br)cc2)cc1 | 13.4% |
| NC(=S)c1ccc(-n2nc(C(F)(F)F)cc2-c2ccc(F)cc2)cc1 | inactive |
| N#Cc1ccc(-n2nc(C(F)(F)F)cc2-c2ccc(Cl)cc2)cc1 | inactive |
| N#Cc1ccc(-n2nc(C(F)(F)F)cc2-c2cccs2)cc1 | inactive |
| NC(=S)c1ccc(-n2nc(C(F)(F)F)cc2-c2ccccc2)cc1 | 97.9% |
| N#Cc1ccc(-n2nc(C(F)(F)F)cc2-c2ccc3ccccc3c2)cc1 | 20.7% |

Alright, here's another compound for you.
Output measured inhibition for this item: `N#Cc1ccc(-n2nc(C(F)(F)F)cc2-c2ccc(F)cc2)cc1`
inactive
